Taken from PubChem BioAssay AID1963872.

# Test system: KRAS patient-derived spheroids with HUVEC/MSC, viability;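 note: compound exposure lasted seven days before readout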
# assay.procedure: Anticancer human tumor 519858-162-T-J1-PDC patient-derived colon adenocarcinoma cell line growth inhibition [KRAS2]
# experimental.parameters: curve of first compound; second compound 0.316 µM
pIC50: −log10 of the molar value.
measured.quantity: pIC50

Below: 10 compounds and their reported pIC50.
[
  {
    "compound": "CCN1CCN(Cc2ccc(Nc3ncc(F)c(-c4cc(F)c5nc(C)n(C(C)C)c5c4)n3)nc2)CC1 + C=CC(=O)N1CCN(c2nc(OCC3CCCN3C)nc3c2CCN(c2cccc4cccc(C)c24)C3)CC1CC#N",
    "observed.value": "< 6.00"
  },
  {
    "compound": "Cn1ncnc1[C@H]1c2n[nH]c(=O)c3cc(F)cc(c23)N[C@@H]1c1ccc(F)cc1 + COc1cc2nc(C)nc(NC(C)c3cc(N)cc(C(F)(F)F)c3)c2cc1OC1CCOC1",
    "observed.value": "< 7.00"
  },
  {
    "compound": "COc1cc(Nc2ncc3c(n2)-c2ccc(Cl)cc2C(c2c(F)cccc2OC)=NC3)ccc1C(=O)O + C=CC(=O)N1CCN(c2nc(=O)n(-c3c(C)ccnc3C(C)C)c3nc(-c4c(O)cccc4F)c(F)cc23)C(C)C1",
    "observed.value": "< 5.00"
  },
  {
    "compound": "COc1cc2nccc(Oc3ccc(NC(=O)C4(C(=O)Nc5ccc(F)cc5)CC4)cc3)c2cc1OC + CNCc1ccccc1-c1csc(C(C)Nc2nc(C)nc3cc(OC)c(OC)cc23)c1",
    "observed.value": "< 5.00"
  },
  {
    "compound": "COc1cc(Nc2ncc3c(n2)-c2ccc(Cl)cc2C(c2c(F)cccc2OC)=NC3)ccc1C(=O)O + COc1cc2nc(C)nc(NC(C)c3cc(N)cc(C(F)(F)F)c3)c2cc1OC1CCOC1",
    "observed.value": "< 5.00"
  },
  {
    "compound": "Cn1ncnc1[C@H]1c2n[nH]c(=O)c3cc(F)cc(c23)N[C@@H]1c1ccc(F)cc1 + C=CC(=O)N1CCN(c2nc(OCC3CCCN3C)nc3c2CCN(c2cccc4cccc(C)c24)C3)CC1CC#N",
    "observed.value": "< 7.00"
  },
  {
    "compound": "COc1cc2nccc(Oc3ccc(NC(=O)C4(C(=O)Nc5ccc(F)cc5)CC4)cc3)c2cc1OC + C=CC(=O)N1CCN(c2nc(OCC3CCCN3C)nc3c2CCN(c2cccc4cccc(C)c24)C3)CC1CC#N",
    "observed.value": "< 5.00"
  },
  {
    "compound": "CCN1CCN(Cc2ccc(Nc3ncc(F)c(-c4cc(F)c5nc(C)n(C(C)C)c5c4)n3)nc2)CC1 + CNCc1ccccc1-c1csc(C(C)Nc2nc(C)nc3cc(OC)c(OC)cc23)c1",
    "observed.value": 6.75
  },
  {
    "compound": "COc1cc2nccc(Oc3ccc(NC(=O)C4(C(=O)Nc5ccc(F)cc5)CC4)cc3)c2cc1OC + C=CC(=O)N1CCN(c2nc(=O)n(-c3c(C)ccnc3C(C)C)c3nc(-c4c(O)cccc4F)c(F)cc23)C(C)C1",
    "observed.value": "< 5.00"
  },
  {
    "compound": "CCN1CCN(Cc2ccc(Nc3ncc(F)c(-c4cc(F)c5nc(C)n(C(C)C)c5c4)n3)nc2)CC1 + COc1cc2nc(C)nc(NC(C)c3cc(N)cc(C(F)(F)F)c3)c2cc1OC1CCOC1",
    "observed.value": 6.41
  }
]

Task item: Can you look up the measured pIC50 of CC(=O)OC12COC1CC(O)C1(C)C(=O)C(O)C3=C(C)C(OC(=O)C(O)C(NC(=O)OC(C)(C)C)c4ccccc4)CC(O)(C(OC(=O)c4ccccc4)C21)C3(C)C (stereo not given) + CC1OCC2(CCN(c3cnc(Sc4ccnc(N)c4Cl)c(N)n3)CC2)C1N for me?
Reply: < 5.50

Task item: Can you look up the measured pIC50 of CC(C)NCC(C(=O)N1CCN(c2ncnc3c2C(C)CC3O)CC1)c1ccc(Cl)cc1 (stereo not given) + CC1OCC2(CCN(c3cnc(Sc4ccnc(N)c4Cl)c(N)n3)CC2)C1N for me?
Reply: < 5.00

Task item: Can you look up the measured pIC50 of COc1cc(Nc2ncc3c(n2)-c2ccc(Cl)cc2C(c2c(F)cccc2OC)=NC3)ccc1C(=O)O + CNCc1ccccc1-c1csc(C(C)Nc2nc(C)nc3cc(OC)c(OC)cc23)c1 for me?
Reply: < 5.00
